Recorded protein stability index by entry
B1: CLCN6 (parent)
chain: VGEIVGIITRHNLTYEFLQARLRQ

Variants of: B1
assay-text: protein stability index of a GFP-peptide fusion (GPS, HEK-293T) (PSI 1-6); higher = more stable;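 note: lentivirally expressed fusions sorted by FACS into six bins by GFP to DsRed ratio, PSI derived from sequencing read proportions per bin multiplied by bin number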
condition-description: c terminus: a fixed tail appended
Lab note: jot down the number only; don't add units.

variant-id | protein stability index
E16S | 2.17
R21T | 2.69
E16L | 3.17
Q19K | 4.39
L18K | 2.67
G2T | 2.6
E3F | 1.43
N12C | 2.21
L18N | 1.6
Y15F | 2.95

Consider now this further variant.
# lookup: protein stability index of I4V
2.06
